Test: Clearance in BALB/c mouse plasma at 2 mg/kg, iv or at 10 mg/kg, po administered as single dose
Format: ADME, organism-based
measuredQuantity: clearance (mL/min/kg)

[a] COc1ccc(-c2ccn(CCC(=O)O)c2-c2ccc(C(N)=O)cc2C)cc1
[b] COc1ccc(-c2ccc(CCC(=O)O)n2-c2ccc(C(N)=O)cc2C)cc1
Lab note: check whether a or b has the lower measured clearance. Please respond with the label that marks your chosen entry.
b
(b: 35.4 mL/min/kg, a: 52.3 mL/min/kg)

----------
Test system: Voltage-gated potassium channel
Test: Inhibition of human recombinant Kv channel at 10 uM by radioligand binding assay
Assay type: protein assay
measuredQuantity: inhibition (INH)

Before answering, review these 4 worked examples.
1. Cc1cc(C(N)=O)ccc1-c1c(CCC(=O)O)ccn1-c1ccc(-n2ccnc2)cc1: Not Active
2. COc1ccc(-c2ccn(-c3ccc(O)c([N+](=O)[O-])c3)c2-c2ccc(C(N)=O)cc2C)cc1: Active
3. Cc1cc(C(N)=O)ccc1-c1c(-c2ccc(-n3ccnc3)cc2)ccn1CCC(=O)O: Not Active
4. Cc1cc(C(N)=O)ccc1-n1c(CCC(=O)O)ccc1-c1ccc(-n2ccnc2)cc1: Not Active

What inhibition (INH) value was documented for this molecule, COc1ccc(-c2ccn(-c3ccc(C(=O)O)c(O)c3)c2-c2ccc(C(N)=O)cc2C)cc1 ?
Active

----------
Target: Type-1 angiotensin II receptor (Homo sapiens)
Test: Inhibition of human recombinant AT1 receptor at 10 uM by radioligand binding assay
Activity calls are given as the source filed them. No cut-off for these calls is given here.
measuredQuantity: inhibition

Before answering, review these 4 worked examples.
1. COc1ccc(-c2ccn(-c3ccc(O)c([N+](=O)[O-])c3)c2-c2ccc(C(N)=O)cc2C)cc1: Active
2. COc1ccc(-c2ccn(-c3ccc(C(=O)O)c(O)c3)c2-c2ccc(C(N)=O)cc2C)cc1: Active
3. Cc1cc(C(N)=O)ccc1-n1c(CCC(=O)O)ccc1-c1ccc(-n2ccnc2)cc1: inactive
4. Cc1cc(C(N)=O)ccc1-c1c(CCC(=O)O)ccn1-c1ccc(-n2ccnc2)cc1: inactive

# ---- query molecule ----
What inhibition value was documented for this molecule, Cc1cc(C(N)=O)ccc1-c1c(-c2ccc(-n3ccnc3)cc2)ccn1CCC(=O)O ?
inactive

----------
Biological target: Melatonin receptor type 1A (Homo sapiens) (UniProt P48039)
Sequence (P48039 whole entry): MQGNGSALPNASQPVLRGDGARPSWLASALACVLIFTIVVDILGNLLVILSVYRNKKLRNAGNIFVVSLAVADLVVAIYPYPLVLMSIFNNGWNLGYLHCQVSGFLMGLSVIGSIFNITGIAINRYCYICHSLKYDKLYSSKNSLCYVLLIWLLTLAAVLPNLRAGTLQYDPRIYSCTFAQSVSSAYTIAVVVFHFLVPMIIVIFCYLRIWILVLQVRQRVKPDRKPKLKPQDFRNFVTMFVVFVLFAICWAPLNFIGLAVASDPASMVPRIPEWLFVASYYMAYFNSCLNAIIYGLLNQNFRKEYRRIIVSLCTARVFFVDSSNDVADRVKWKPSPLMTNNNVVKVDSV
Test: Inhibition of human recombinant MT1 receptor at 10 uM by radioligand binding assay
Calls of active or inactive are those of the source. The rule behind the calls is not given here.
# valid calls are class 1 = active, class 0 = inactive; nothing else

Below, 4 compounds whose answers are already recorded.
1) Cc1cc(C(N)=O)ccc1-c1c(CCC(=O)O)ccn1-c1ccc(-n2ccnc2)cc1: class 0
2) Cc1cc(C(N)=O)ccc1-n1c(CCC(=O)O)ccc1-c1ccc(-n2ccnc2)cc1 [N6022]: class 0
3) COc1ccc(-c2ccn(-c3ccc(O)c([N+](=O)[O-])c3)c2-c2ccc(C(N)=O)cc2C)cc1: class 1
4) Cc1cc(C(N)=O)ccc1-c1c(-c2ccc(-n3ccnc3)cc2)ccn1CCC(=O)O: class 0

From here, focus on the item given below.
Which outcome did this test record for the compound COc1ccc(-c2ccn(-c3ccc(C(=O)O)c(O)c3)c2-c2ccc(C(N)=O)cc2C)cc1 ?
class 1

----------
Target: Mu-type opioid receptor (Homo sapiens) (UniProt P35372)
Sequence (P35372 whole entry): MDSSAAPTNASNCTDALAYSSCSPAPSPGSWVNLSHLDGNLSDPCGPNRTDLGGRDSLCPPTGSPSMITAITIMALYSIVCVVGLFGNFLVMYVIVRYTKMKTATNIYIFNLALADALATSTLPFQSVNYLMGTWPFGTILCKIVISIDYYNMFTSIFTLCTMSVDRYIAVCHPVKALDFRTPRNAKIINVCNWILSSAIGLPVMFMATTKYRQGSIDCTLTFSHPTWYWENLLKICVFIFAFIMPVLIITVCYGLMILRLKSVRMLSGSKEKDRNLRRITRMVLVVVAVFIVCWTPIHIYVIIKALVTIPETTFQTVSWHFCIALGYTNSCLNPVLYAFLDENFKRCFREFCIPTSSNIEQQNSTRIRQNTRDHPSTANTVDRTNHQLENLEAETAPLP
Experiment: Inhibition of human recombinant MOP receptor at 10 uM by radioligand binding assay
Activity calls are given as the source filed them. The calls are words filed in the database; no cut-off is given here.
# valid calls are Y = active, N = inactive; nothing else

Below, 4 compounds whose answers are already recorded.
1. Cc1cc(C(N)=O)ccc1-c1c(-c2ccc(-n3ccnc3)cc2)ccn1CCC(=O)O: N
2. Cc1cc(C(N)=O)ccc1-n1c(CCC(=O)O)ccc1-c1ccc(-n2ccnc2)cc1: N
3. COc1ccc(-c2ccn(-c3ccc(C(=O)O)c(O)c3)c2-c2ccc(C(N)=O)cc2C)cc1: Y
4. COc1ccc(-c2ccn(-c3ccc(O)c([N+](=O)[O-])c3)c2-c2ccc(C(N)=O)cc2C)cc1: Y

From here, focus on the item given below.
Which outcome did this test record for the compound Cc1cc(C(N)=O)ccc1-c1c(CCC(=O)O)ccn1-c1ccc(-n2ccnc2)cc1 ?
N
